Target: sigma receptors (Rattus norvegicus)
Sequence (Q9R0C9 whole entry): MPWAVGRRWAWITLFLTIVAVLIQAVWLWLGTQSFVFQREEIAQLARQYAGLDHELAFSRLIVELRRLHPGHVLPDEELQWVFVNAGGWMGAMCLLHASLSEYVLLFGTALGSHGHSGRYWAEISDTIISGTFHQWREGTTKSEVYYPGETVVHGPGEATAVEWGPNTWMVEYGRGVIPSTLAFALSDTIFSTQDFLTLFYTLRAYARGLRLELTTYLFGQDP
observable: IC50 (nM)
Answers are plain numbers, in nM.

Give the reported value of IC50 for this record: Cl.Clc1cc(/C=C\CN2CCCCCC2)ccc1C1CCCCC1 [Example 2, hydrochloride]
8

* * *

Target: dopaminergic receptor(s) (Rattus norvegicus, UniProt P61169)
Sequence (P61169 whole entry): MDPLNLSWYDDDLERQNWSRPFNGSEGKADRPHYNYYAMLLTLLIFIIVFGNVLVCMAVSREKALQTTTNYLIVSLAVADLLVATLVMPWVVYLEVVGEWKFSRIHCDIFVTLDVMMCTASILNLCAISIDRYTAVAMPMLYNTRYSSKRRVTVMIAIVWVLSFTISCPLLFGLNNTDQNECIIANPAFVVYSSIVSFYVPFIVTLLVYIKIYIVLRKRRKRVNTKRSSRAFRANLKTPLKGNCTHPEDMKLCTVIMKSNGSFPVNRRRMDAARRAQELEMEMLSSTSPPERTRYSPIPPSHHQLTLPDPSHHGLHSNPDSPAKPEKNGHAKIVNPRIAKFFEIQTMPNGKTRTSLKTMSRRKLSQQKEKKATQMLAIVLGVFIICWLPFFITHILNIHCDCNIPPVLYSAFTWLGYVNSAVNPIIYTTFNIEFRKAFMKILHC
observable: IC50 (µM)
Numbers only, in µM.

// Input: Cl.Clc1cc(/C=C\CN2CCCCCC2)ccc1C1CCCCC1 [Example 2, hydrochloride] . Output its IC50 only.
10

The measurements presented in this section are drawn from patent US5296596A.
